biological target: Bcl-2 protein (Recombinant Human Bcl-2 Protein) (Homo sapiens); construct: purchased Novus NBP2-34889; test: Binding evaluation of mixture library compounds to Bcl-2 using AS-MS (affinity selection mass spectrometry); conditions: AS-MS, mixture library, Bcl-2; replicate n = 2; ASMS Ratio(%)=(A−C)/B×100
Sequence (P10415 whole entry): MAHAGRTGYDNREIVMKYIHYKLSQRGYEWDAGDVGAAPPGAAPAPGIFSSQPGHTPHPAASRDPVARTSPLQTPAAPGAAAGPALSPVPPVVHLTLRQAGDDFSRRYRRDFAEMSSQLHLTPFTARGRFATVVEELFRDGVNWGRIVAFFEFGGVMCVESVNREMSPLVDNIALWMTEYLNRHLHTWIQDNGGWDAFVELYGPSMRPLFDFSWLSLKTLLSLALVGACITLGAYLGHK
MEASURED_METRIC: ASMS ratio (%) n = 2

MOLECULAR_STRING: CCOc1cncc(-c2ccc(CN3CCN(c4ccc(C(=O)NS(=O)(=O)CC56CC7CC(CC(C7)C5)C6)nn4)CC3)c3ccccc23)c1
ASMS ratio (%) n = 2: 16.6

A = CCOc1cccc(-c2ccc(CN3CCN(c4ccc(C(=O)NS(=O)(=O)CC56CC7CC(CC(C7)C5)C6)cc4)CC3)c(CC)c2)c1
B = CCOc1cccc(C#Cc2ccccc2CN2CCN(c3ccc(C(=O)NS(=O)(=O)c4ccc(NCCSc5ccccc5)c([N+](=O)[O-])c4)nn3)CC2)c1
C = CCOc1cncc(-c2csc(CN3CCN(c4ccc(C(=O)N(CC)CC)nn4)CC3)c2)c1
[ask] Reorder the items by ASMS ratio (%) n = 2, least to greatest. # format: label list in the order the request specifies
[reply] C, A, B
(C: 0.1%, A: 6.2%, B: 11.9%)
